# Target Or Test System: hGIPR (Homo sapiens)
# Construct: expressed in transfected cells; host or cells: CHO cells carrying a CRE-luciferase reporter gene
# Sequence (P48546 22-466): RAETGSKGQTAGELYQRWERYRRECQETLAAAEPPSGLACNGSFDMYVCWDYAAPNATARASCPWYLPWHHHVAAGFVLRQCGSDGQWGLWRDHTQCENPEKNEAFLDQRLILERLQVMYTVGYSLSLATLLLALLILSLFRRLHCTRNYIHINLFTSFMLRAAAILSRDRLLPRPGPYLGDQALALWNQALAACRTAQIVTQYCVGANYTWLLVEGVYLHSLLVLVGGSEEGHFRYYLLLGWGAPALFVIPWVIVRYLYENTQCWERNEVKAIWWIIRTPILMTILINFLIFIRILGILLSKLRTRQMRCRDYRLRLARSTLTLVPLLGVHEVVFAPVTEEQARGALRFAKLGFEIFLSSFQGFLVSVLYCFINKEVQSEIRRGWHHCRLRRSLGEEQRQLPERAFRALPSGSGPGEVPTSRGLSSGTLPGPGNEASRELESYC
# Experiment Description: hGIPR CreLuc reporter gene assay in 0.5% and 100% plasma
# Assay type: cell-based
# Condition Parameters: CreLuc reporter gene assay, 0.5% human plasma; read-out: hGIPR 0.5% hP
# Description: Example 1: hGLPR/hGIPR/hNPY2R CreLuc Assay in 0.5% and 100% Plasma CHO and HEK-293 recombinant cell lines express a luciferase reporter gene under control of the cAMP responsive element (CRE). […] Following incubation, assay plates are equilibrated to room temperature, followed by addition of 25 μl of Bright-GIo™ Luciferase reagent, incubation at room temperature for 10 minutes and analysis of luminescence (Envision Reader). […]
pEC50: −log10 of the molar value. Starred links: 1 amine or outer side, 2 acyl side, 3 side chain; linkers in the order of their positions; H or OH if unused. Non-standard residues stand in square brackets, D forms with d. Groups on a side chain read outwards from the residue. No end group written: not given here. *: point of attachment. C20 diacid = O=C(O)CCCCCCCCCCCCCCCCCCC(=O)*; C18 diacid = O=C(O)CCCCCCCCCCCCCCCCC(=O)*; γGlu = O=C(O)[C@H](CCC(=O)[*:2])N[*:1]; εLys = N[C@@H](CCCCN[*:1])C(=O)[*:2]; AEEA = NCCOCCOCC(=O)O; Aib = CC(C)(N)C(=O)O
Measured Quantity: pEC50

{"Substance": "Y[Aib]EGTFTSDYSI[Aib]LEKQAQ[Aib]AFVEWLIK([εLys-γGlu-γGlu-γGlu-γGlu-γGlu-C18 diacid])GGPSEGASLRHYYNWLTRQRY-NH2 [Compound 295]", "Measured Quantity": "pEC50", "Value Measured": 9.52}
{"Substance": "H-Y[Aib]EGTFTSDYSI[Aib]LEKQAQ[Aib]EFVEWLIK([εLys-γGlu-γGlu-γGlu-γGlu-γGlu-γGlu-C20 diacid])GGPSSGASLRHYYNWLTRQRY-NH2 [Compound 215]", "Measured Quantity": "pEC50", "Value Measured": 9.30}
{"Substance": "H-Y[Aib]EGTFTSDYSI[Aib]LEKAAQ[Aib]AFVEWLIK([εLys-γGlu-γGlu-γGlu-γGlu-γGlu-γGlu-C20 diacid])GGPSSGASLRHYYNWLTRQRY-NH2 [Compound 136]", "Measured Quantity": "pEC50", "Value Measured": 9.51}
{"Substance": "H-Y[Aib]EGTFTSDYSI[Aib]LEKQAQ[Aib]AFVEWLIK([AEEA-AEEA-γGlu-γGlu-γGlu-γGlu-C18 diacid])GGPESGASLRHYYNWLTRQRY-NH2 [Compound 163]", "Measured Quantity": "pEC50", "Value Measured": 9.59}
{"Substance": "H-Y[Aib]EGTFTSDYSI[Aib]LEKQAQ[Aib]AFVQWLIK([AEEA-AEEA-γGlu-γGlu-γGlu-γGlu-C18 diacid])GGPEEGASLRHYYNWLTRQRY-NH2 [Compound 146]", "Measured Quantity": "pEC50", "Value Measured": 9.11}
{"Substance": "H-Y[Aib]EGTFTSDYSI[Aib]LEKQAQ[Aib]EFVEWLIK([AEEA-AEEA-γGlu-γGlu-γGlu-γGlu-C20 diacid])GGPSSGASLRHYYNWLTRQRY-NH2 [Compound 205]", "Measured Quantity": "pEC50", "Value Measured": 9.48}
{"Substance": "Y[Aib]EGTFTSDYSI[Aib]LEKQAQ[Aib]AFVQWLIK([AEEA-AEEA-γGlu-γGlu-γGlu-γGlu-C20 diacid])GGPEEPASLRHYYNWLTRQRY-NH2 [Compound 77]", "Measured Quantity": "pEC50", "Value Measured": 9.49}
{"Substance": "H-Y[Aib]EGTFTSDYSI[Aib]LEKQAQ[Aib]EFVQWLIK([AEEA-AEEA-γGlu-γGlu-γGlu-γGlu-γGlu-C20 diacid])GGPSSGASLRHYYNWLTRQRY-NH2 [Compound 36]", "Measured Quantity": "pEC50", "Value Measured": 9.59}
{"Substance": "H-Y[Aib]EGTFTSDYSI[Aib]LEKQAQ[Aib]AFVQWLIK([AEEA-AEEA-γGlu-γGlu-γGlu-γGlu-γGlu-C20 diacid])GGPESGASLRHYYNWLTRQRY-NH2 [Compound 32]", "Measured Quantity": "pEC50", "Value Measured": 9.80}
{"Substance": "H-Y[Aib]EGTFTSDYSI[Aib]LEKQAQ[Aib]AFVQWLIK([Glu-Glu-Glu-Glu-C18 diacid])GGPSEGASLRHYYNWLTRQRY-NH2 [Compound 281]", "Measured Quantity": "pEC50", "Value Measured": 9.55}

meta.source: patent US20240247080A1
